testName: Toxicity liver stage against HepG2, at 10uM
Format: cell-based
Set-up: test concentration 10 uM, cell line HepG2-A16-CD81EGFP
experimentalContext: human, HepG2-A16-CD81EGFP cells; read-out: INHIBITION
Entries and their cytotoxicity at 10 µM values follow.
outcomeMeasure: cytotoxicity at 10 µM (%)

INSERT INTO measurements (compound, unitlabel, testresult) VALUES
  ('COc1cccc(CN(C)Cc2[nH]c3ccccc3c2C)c1O', '%', 3.38),
  ('O=C1COC2(CCN(Cc3ccoc3)CC2)CN1', '%', -11.3),
  ('Cc1n[nH]c2c1C(c1ccc(Br)cc1)SCC(=O)N2 (stereo unspecified)', '%', 6.5),
  ('CC(=O)N1CCC(NC[C@H]2Cn3c(-c4ccccc4)cnc3CO2)CC1', '%', -5.04),
  ('c1ccc(CN2CC[C@@H]3O[C@@H](COCCN4CCCC4)CC[C@@H]32)nc1', '%', -80.6),
  ('Cc1ccc(F)c(S(=O)(=O)N2CCCC2c2ccncc2)c1 (stereo unspecified)', '%', 10.6);

###

Items are presented alongside their recorded cytotoxicity at 10 µM.
testName: Toxicity liver stage against HepG2, at 10uM
Format: cell-based
Parameters: test concentration 10 uM, cell line HepG2-A16-CD81EGFP
experimentalContext: human, HepG2-A16-CD81EGFP cells; read-out: INHIBITION
outcomeMeasure: cytotoxicity at 10 µM (%)

INSERT INTO measurements (compound, testresult) VALUES
  ('NC(=O)C(NC(=O)c1cc(Br)c[nH]1)c1ccccc1 (stereo unspecified)', 0.172),
  ('CNC(=O)CN1C(=O)CCC12CCCN(Cc1ccccc1F)C2 (stereo unspecified)', 4.76),
  ('Cc1ccc(CN2CCn3c(CN4CCN(C)CC4)cnc3C2C)s1 (stereo unspecified)', 8.39),
  ('N#CC1(C(=O)N2C[C@@H]3CC[C@H]2CN(Cc2ccncc2)C3)CCOCC1', -11.9),
  ('O=c1cc(CN(CCO)C2CC2)nc2ccccn12', -1.05),
  ('O=C(COc1ccccc1)N1C[C@@H]2COC[C@]2(COc2cccnc2)C1', -100),
  ('CCCN1CCCC1c1ccc(C(=O)N2CCOCC2)s1 (stereo unspecified)', -146),
  ('CC(C)c1noc(C(C)S(=O)(=O)CC(=O)N2CCCC2)n1 (stereo unspecified)', 4.23),
  ('O=C(COCC(F)(F)C(F)F)N1CCC(c2ncc[nH]2)CC1', -53.9),
  ('CC(C)(C)c1cnc(CN2CCC[C@H]2CO)o1', -14.8),
  ('O=c1[nH]cnc2c1CCN(S(=O)(=O)c1ccc(Cl)cc1)C2', -1.68);

###

testName: Toxicity liver stage against HepG2, at 10uM
Format: cell-based
Parameters: test concentration 10 uM, cell line HepG2-A16-CD81EGFP
experimentalContext: human, HepG2-A16-CD81EGFP cells; read-out: INHIBITION
cytotoxicity at 10 µM by entry:
outcomeMeasure: cytotoxicity at 10 µM (%)

INSERT INTO results (compound, testresult) VALUES
  ('CCn1nc(C)c(NC(=O)c2cc(NC(=O)C3CC3)n(C)n2)c1C', -0.916),
  ('O=S1(=O)CCC(n2cc(C3=CCN(CCn4cccc4)CC3)cn2)C1 (centres undefined)', -8.5),
  ('COc1ccccc1OCC(=O)Nc1ncccc1Cl', -3.61),
  ('Cc1cc(OCC(=O)N2CCCC(c3noc(C)n3)C2)no1 (centres undefined)', -0.0722),
  ('Cc1ccc(CN2CCC3(CC2)COCCN3S(C)(=O)=O)o1', 8.86),
  ('Cc1ccc(-n2ncc(C(=O)N3CCCC3c3cnn(C)c3)c2C)cc1 (centres undefined)', -7.79),
  ('CC1CCCCN1c1nc2c(c(=O)[nH]1)CCN(Cc1ccccn1)C2 (centres undefined)', -10.7),
  ('Cc1oc(-c2ccc(F)cc2)nc1CN1CCOCS1(=O)=O', 4.57),
  ('CCOc1cccc(CNc2ccccc2C(=O)OC)c1O', 6.69),
  ('CNC(=O)[C@H]1C[C@@H]2CN(Cc3cccnc3OC)C[C@@H]2N1C(C)C', 11.5),
  ('CCc1cc(NC2CCOCC2)n2nc(C)c(C)c2n1', 0.551),
  ('C[C@@H]1CN(CCC(=O)NCc2ccccc2Cl)CC[C@@]1(O)C1CCC1', -3.21),
  ('CC(C)N(CC(=O)O)Cc1cccc(Br)c1', -8.67),
  ('COCCn1ccc(NC(=O)CNC(=O)CC(C)(C)C)n1', 17.3),
  ('CCOCC(=O)N1C[C@@H](O)[C@H](N2CCN(c3ccccc3)CC2)C1', 7.43),
  ('Cc1csc(N2CCN(C(=O)c3c(C)oc(C)c3C)CC2)n1', -14),
  ('C[C@@H]1CN(CCCOc2ccc(F)cc2)CC[C@@]1(O)C1CCOCC1', -8.01),
  ('COc1ccc(CC(=O)NCCNS(=O)(=O)c2ccc(C)cc2)cc1', -143),
  ('CN(C)c1cccc(C2CCN(c3ncccn3)CC2)n1', -8.41),
  ('COc1ccc(C(O)CNC(=O)NCc2c(C)cc(C)[nH]c2=O)cc1 (centres undefined)', -2.99),
  ('O=S1(=O)COCCN1CCCOc1ccc(F)cc1', 3.57),
  ('Cc1c[nH]cc1C(=O)N1CCN(CCc2cccs2)CC1', -6.8),
  ('O=c1[nH]c2nc(N3CCOCC3)ncc2c(=O)n1-c1cccc(F)c1', 9.32),
  ('CN(Cc1cccnc1)CC1CCCN1c1cccnn1 (centres undefined)', 0.192);

###

Listing: cytotoxicity at 10 µM of selected compounds
testName: Toxicity liver stage against HepG2, at 10uM
Type: cell-based
Set-up: test concentration 10 uM, cell line HepG2-A16-CD81EGFP
experimentalContext: human, HepG2-A16-CD81EGFP cells; read-out: INHIBITION
outcomeMeasure: cytotoxicity at 10 µM (%)

INSERT INTO assay_data (compound, testresult) VALUES
  ('Cc1nc(C2CCCN2CCOCC2CC2)no1 (configuration not stated)', -4.56),
  ('CCc1nc(C)c([C@H]2CN(C)C[C@@H]2C(=O)Nc2ccccc2F)[nH]1', 2.16),
  ('COCCN1C(=O)[C@@H]2CC[C@H]1CN(C(=O)CCc1n[nH]c(C)c1C)C2', 13.5),
  ('c1nc2c(c(N3CCOC(Cn4cncn4)C3)n1)CCC2 (configuration not stated)', 14.5),
  ('COCCS(=O)(=O)NCC(C)c1cccc(C)c1 (configuration not stated)', 2.03),
  ('CN(C)CC1(O)CCCN(c2nc(-c3ccccc3)no2)CC1 (configuration not stated)', -4.6),
  ('COc1ccc(CNCC2CNc3ccnn3C2)cn1 (configuration not stated)', -3.84),
  ('Cc1ncccc1CNCC1CCN(CC(O)c2ccccc2)CC1 (configuration not stated)', -6.76),
  ('CCn1ccnc1C1CCCN(c2nccc3ccccc23)C1 (configuration not stated)', -2.74),
  ('CCn1c(C)nc2cc(NC(=O)CC3CCCCO3)ccc21 (configuration not stated)', 5.36),
  ('CC(C)c1nc(CN2CCCC(Cn3cncn3)C2)cs1 (configuration not stated)', -12.9),
  ('Cc1cc(NCCCOC(C)C)c2nncn2n1', 6.17);

###

testName: Toxicity liver stage against HepG2, at 10uM
Format: cell-based
Design: test concentration 10 uM, cell line HepG2-A16-CD81EGFP
experimentalContext: human, HepG2-A16-CD81EGFP cells; read-out: INHIBITION
# cytotoxicity at 10 µM annotations
outcomeMeasure: cytotoxicity at 10 µM (%)

INSERT INTO measurements (compound, unitlabel, testresult) VALUES
  ('CCCNC(=O)CN(C)C1CCN(c2ccc(Cl)cc2)CC1', '%', 1.41),
  ('COc1cccn(C(C)C(=O)NC2CCCC2)c1=O (configuration not stated)', '%', 5.32),
  ('CN1C(=O)CC(C(=O)O)C12CCN(Cc1ccc(Cl)c(Cl)c1)CC2 (configuration not stated)', '%', 2.12),
  ('O=S(=O)(Nc1cnc(N2CCCC2)nc1)c1ccc(F)cc1F', '%', -14.4),
  ('CCCS(=O)(=O)N1CCN(CCOC)c2nc(C)ccc2C1', '%', 8.07),
  ('O=C(CN1CCOC1=O)N1CCc2nnc(Cc3ccccc3)n2CC1', '%', -45.6),
  ('Cc1nnc2n1CCN(C(=O)COCCOc1ccccc1)C2', '%', 0.529),
  ('C[C@@H](NCc1cccc(Cl)c1)c1onc(-c2ccccc2)c1C(=O)O', '%', -4.98),
  ('Cc1cc(N[C@@H](CO)c2ccccc2)n2nc(C)c(C)c2n1', '%', -0.054),
  ('CN(C)C(=O)CN1CCCC12CCCN(c1ncc(F)cn1)C2 (configuration not stated)', '%', -2.51),
  ('Cc1cnc(C(=O)NCc2ccc3c(c2)CCCN3C)cn1', '%', -4.92),
  ('CCN1C(=O)CC(c2cnn(C)c2)C12CCN(C(=O)C1CC=CC1)CC2 (configuration not stated)', '%', 5.13);
